// data source = ChEMBL document CHEMBL3102785

I'd be grateful if you could share measured MIC for these entries.
- System: Enterococcus faecalis
- ASSAY_DETAILS: Antibacterial activity against Enterococcus faecalis L560 expressing VanA gene after 24 hrs by broth microdilution method
- Type: functional
- ASSAY_CONDITIONS: L560, 24 h
Enter your answer as a number in µg/mL; do not include the unit.

MIC for C=C1NC(=O)[C@H](Cc2c[nH]c3ccc(Cl)cc23)NC(=O)[C@@H](NC(=O)/C(=C/C)NC(=O)[C@@H](N)C(C)C)CSC[C@@H](C(=O)N[C@@H]2C(=O)N3CCC[C@H]3C(=O)NCC(=O)N[C@H](C(=O)N[C@H](C(=O)N[C@H]3CSC[C@@H]4NC(=O)[C@H](CC(=O)O)NC(=O)[C@H](CSC[C@@H]5NC(=O)[C@H](Cc6ccccc6)NC(=O)[C@H](CS/C=C\NC5=O)NC4=O)NC(=O)CNC(=O)CNC(=O)CNC(=O)[C@@H]4CC(O)CN4C3=O)[C@@H](C)O)CSC2C)NC(=O)[C@H](CC(C)C)NC1=O (some centres undefined) ?
2

MIC for C=C1NC(=O)[C@H](Cc2c[nH]c3ccccc23)NC(=O)[C@@H](NC(=O)/C(=C/C)NC(=O)[C@@H](N)C(C)C)CSC[C@@H](C(=O)N[C@@H]2C(=O)N3CCC[C@H]3C(=O)NCC(=O)N[C@H](C(=O)N[C@H](C(=O)N[C@H]3CSC[C@@H]4NC(=O)[C@H](CC(=O)O)NC(=O)[C@H](CSC[C@@H]5NC(=O)[C@H](Cc6ccccc6)NC(=O)[C@H](CS/C=C\NC5=O)NC4=O)NC(=O)CNC(=O)CNC(=O)CNC(=O)[C@@H]4CCCN4C3=O)[C@@H](C)O)CSC2C)NC(=O)[C@H](CC(C)C)NC1=O (some centres undefined) ?
32

MIC for C=C1NC(=O)[C@H](Cc2c[nH]c3ccc(Cl)cc23)NC(=O)[C@@H](NC(=O)/C(=C/C)NC(=O)[C@@H](N)C(C)C)CSC[C@@H](C(=O)N[C@@H]2C(=O)N3CCC[C@H]3C(=O)NCC(=O)N[C@H](C(=O)N[C@H](C(=O)N[C@H]3CSC[C@@H]4NC(=O)[C@H](CC(=O)O)NC(=O)[C@H](CSC[C@@H]5NC(=O)[C@H](Cc6ccccc6)NC(=O)[C@H](CS/C=C\NC5=O)NC4=O)NC(=O)CNC(=O)CNC(=O)CNC(=O)[C@@H]4CCCN4C3=O)[C@@H](C)O)CSC2C)NC(=O)[C@H](CC(C)C)NC1=O (some centres undefined) ?
4

MIC for C=C1NC(=O)[C@H](Cc2c[nH]c3ccc(Cl)cc23)NC(=O)[C@@H](NC(=O)/C(=C/C)NC(=O)[C@@H](N)C(C)C)CSC[C@@H](C(=O)N[C@@H]2C(=O)N3CCC[C@H]3C(=O)NCC(=O)N[C@H](C(=O)N[C@H](C(=O)N[C@H]3CSC[C@@H]4NC(=O)[C@H](CC(=O)O)NC(=O)[C@H](CSC[C@@H]5NC(=O)[C@H](Cc6ccccc6)NC(=O)[C@H](CS/C=C\NC5=O)NC4=O)NC(=O)CNC(=O)CNC(=O)CNC(=O)[C@@H]4C(O)C(O)CN4C3=O)[C@@H](C)O)CSC2C)NC(=O)[C@H](CC(C)C)NC1=O (some centres undefined) ?
1
